What viability, T/C was measured for each of the following?
System: 242566-281-R-J2-PDC complex spheroid viability
test: Anticancer human tumor 242566-281-R-J2-PDC patient-derived pancreatic carcinoma cell line growth inhibition [RAS]
statedConditions: second compound 0.316 µM; first compound 0.01 µM; hits give low values
Field: numeric (%). Do not append units.

Ask | Supply measured viability, T/C of C=CC(=O)Nc1cc(Nc2nccc(-c3cn(C)c4ccccc34)n2)c(OC)cc1N(C)CCN(C)C + C=CC(=O)N1CCN(c2nc(OCC3CCCN3C)nc3c(F)c(-c4nc(N)cc(C)c4C(F)(F)F)c(Cl)cc23)C(C)C1 in your reply.
Reply | 121

Ask | State, in one line, measured viability, T/C of O=C(c1ccc(F)c(F)c1Nc1ccc(I)cc1F)N1CC(O)([C@@H]2CCCCN2)C1 + C=CC(=O)N1CCN(c2nc(OCC3CCCN3C)nc3c(F)c(-c4nc(N)cc(C)c4C(F)(F)F)c(Cl)cc23)C(C)C1
Reply | 113

Ask | # return recorded viability, T/C for entry CCN1CCN(Cc2ccc(Nc3ncc(F)c(-c4cc(F)c5nc(C)n(C(C)C)c5c4)n3)nc2)CC1 + C=CC(=O)N1CCN(c2nc(OCC3CCCN3C)nc3c(F)c(-c4nc(N)cc(C)c4C(F)(F)F)c(Cl)cc23)C(C)C1
Reply | 134

Ask | Give the value of viability, T/C reported for the following: CCN1CCN(Cc2ccc(Nc3ncc(F)c(-c4cc(F)c5nc(C)n(C(C)C)c5c4)n3)nc2)CC1 + C#Cc1c(F)ccc2cc(O)cc(-c3ncc4c(N5CC6CCC(C5)N6)nc(OCC56CCCN5CC(F)C6)nc4c3F)c12
Reply | 72

Ask | Please indicate viability, T/C recorded for CC(C)n1nc(-c2ccc3oc(N)nc3c2)c2c(N)ncnc21 + C#Cc1c(F)ccc2cc(O)cc(-c3ncc4c(N5CC6CCC(C5)N6)nc(OCC56CCCN5CC(F)C6)nc4c3F)c12
Reply | 44.5

* * *

Provide the recorded viability, T/C for the entries that follow.
Test system: 242566-281-R-J2-PDC complex spheroid viability
test: Anticancer human tumor 242566-281-R-J2-PDC cell line growth inhibition [RAS];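 note: spheroids exposed to compound for 7 days before readout; 100% = DMSO vehicle control wells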
statedConditions: second compound 0.00949 µM; first compound 0.0316 µM; hits give low values
Supply the numeric figure in %, leaving out any unit text.

Ask | For the molecule CC(C)n1nc(-c2ccc3oc(N)nc3c2)c2c(N)ncnc21 + CCn1c(-c2cc(N3CCN(C)CC3)cnc2C(C)OC)c2c3cc(ccc31)-c1csc(n1)CC(NC(=O)C1CC1C)C(=O)N1CCCC(N1)C(=O)OCC(C)(C)C2 , report viability, T/C.
Reply | 28.2

Ask | Please give the documented viability, T/C of CCC(CC)c1cc(NC2CCC(N)C2)n2nccc2n1 (stereo not drawn) + CCn1c(-c2cc(N3CCN(C)CC3)cnc2C(C)OC)c2c3cc(ccc31)-c1csc(n1)CC(NC(=O)C1CC1C)C(=O)N1CCCC(N1)C(=O)OCC(C)(C)C2
Reply | 50.9

Ask | Give the measured viability, T/C for CCN1CCN(Cc2ccc(Nc3ncc(F)c(-c4cc(F)c5nc(C)n(C(C)C)c5c4)n3)nc2)CC1 + CCn1c(-c2cccnc2C(C)OC)c2c3cc(ccc31)N1CCOC(CC(NC(=O)C(C(C)C)N(C)C(=O)C3(F)CCN(C(=O)C#CC(C)(C)N(C)C)CC3)C(=O)N3CCCC(N3)C(=O)OCC(C)(C)C2)C1
Reply | 93.1

Ask | Specify measured viability, T/C for NC1c2ccccc2OC12CCN(c1cnc3c(N4CCCc5ncccc54)n[nH]c3n1)CC2 (stereo not drawn) + CCn1c(-c2cccnc2C(C)OC)c2c3cc(ccc31)N1CCOC(CC(NC(=O)C(C(C)C)N(C)C(=O)C3(F)CCN(C(=O)C#CC(C)(C)N(C)C)CC3)C(=O)N3CCCC(N3)C(=O)OCC(C)(C)C2)C1 .
Reply | 82.3

Ask | # return recorded viability, T/C for input CC(C)n1nc(-c2ccc3oc(N)nc3c2)c2c(N)ncnc21 + CCn1c(-c2cccnc2C(C)OC)c2c3cc(ccc31)N1CCOC(CC(NC(=O)C(C(C)C)N(C)C(=O)C3(F)CCN(C(=O)C#CC(C)(C)N(C)C)CC3)C(=O)N3CCCC(N3)C(=O)OCC(C)(C)C2)C1
Reply | 43.4

Ask | Report measured viability, T/C; entry is CC(=O)OC12COC1CC(O)C1(C)C(=O)C(O)C3=C(C)C(OC(=O)C(O)C(NC(=O)OC(C)(C)C)c4ccccc4)CC(O)(C(OC(=O)c4ccccc4)C21)C3(C)C (stereo not drawn) + CCn1c(-c2cc(N3CCN(C)CC3)cnc2C(C)OC)c2c3cc(ccc31)-c1csc(n1)CC(NC(=O)C1CC1C)C(=O)N1CCCC(N1)C(=O)OCC(C)(C)C2
Reply | 26

Ask | Quickly give me recorded viability, T/C for Nc1ccn(C2OC(CO)C(O)C2(F)F)c(=O)n1 (stereo not drawn) + CCn1c(-c2cccnc2C(C)OC)c2c3cc(ccc31)N1CCOC(CC(NC(=O)C(C(C)C)N(C)C(=O)C3(F)CCN(C(=O)C#CC(C)(C)N(C)C)CC3)C(=O)N3CCCC(N3)C(=O)OCC(C)(C)C2)C1
Reply | 81.2

Ask | Input CC(C)NCC(C(=O)N1CCN(c2ncnc3c2C(C)CC3O)CC1)c1ccc(Cl)cc1 (stereo not drawn) + CCn1c(-c2cccnc2C(C)OC)c2c3cc(ccc31)N1CCOC(CC(NC(=O)C(C(C)C)N(C)C(=O)C3(F)CCN(C(=O)C#CC(C)(C)N(C)C)CC3)C(=O)N3CCCC(N3)C(=O)OCC(C)(C)C2)C1 , output reported viability, T/C.
Reply | 109
